Biological target: UniProt P51449
Experiment: RORγt reporter assay (GAL4-RORγt LBD luciferase in HEK293T cells)
Assay type: cell-based
Details: HEK293T cells, 6 μM
Each entry below carries its reported RORγt reporter Assay, % inhibition @ 6 μM.
assay-endpoint: RORγt reporter Assay, % inhibition @ 6 μM (%)

[[record]]
molecule = "Cc1cc(C(O)(c2ccc(C#N)cc2)c2cncn2C)cc2c(C#N)c(Cc3ccc(-n4cccn4)cc3)c(C#N)nc12 (single isomer, unassigned) [Example 66C]"
measurement_target = "UniProt P51449"
numeric_result = 101

[[record]]
molecule = "CCc1nc2ccc(C(O)(c3cnnn3C)C3CN(S(C)(=O)=O)C3)cc2c(Cl)c1Cc1ccc(C(F)(F)F)cc1 (single isomer, unassigned) [Example 91C]"
measurement_target = "UniProt P51449"
numeric_result = 102

[[record]]
molecule = "COc1nc2ccc(C(O)(c3ccc(Cl)cc3)c3cncn3C)cc2c(Cl)c1Cc1ccc(-n2cncn2)cc1 (single isomer, unassigned) [Example 64C]"
measurement_target = "UniProt P51449"
numeric_result = 94


* * *

Each entry below carries its reported Kd.
Molecular target: human RORγt ligand binding domain (RORγt LBD) (Homo sapiens (Human), UniProt P51449)
Sequence (P51449 other isoform, or with tags, fused parts or gaps): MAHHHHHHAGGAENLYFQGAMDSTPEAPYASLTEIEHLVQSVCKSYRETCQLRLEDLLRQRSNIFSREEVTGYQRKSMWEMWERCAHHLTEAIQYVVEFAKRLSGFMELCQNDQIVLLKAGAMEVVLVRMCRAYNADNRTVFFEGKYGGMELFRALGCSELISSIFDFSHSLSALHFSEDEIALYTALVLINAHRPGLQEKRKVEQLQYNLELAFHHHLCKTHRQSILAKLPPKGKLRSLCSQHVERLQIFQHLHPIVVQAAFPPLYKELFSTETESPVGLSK
Experiment: RORγt ThermoFluor assay (thermal shift binding affinity)
Settings: estimated from thermal shift
assay-endpoint: Kd (µM)

[[record]]
compound = "COc1nc2ccc(C(O)(c3ccc(Cl)cc3)c3cncn3C)cc2c(OC)c1Cc1ccc(-n2cccn2)cc1 (stereo not shown)"
assay_endpoint = "Kd"
numeric_result = 0.25

[[record]]
compound = "COc1nc2ccc(C(O)(c3ccc(C#N)cc3)c3cncn3C)cc2c(C#N)c1Cc1ccc(C(F)(F)F)cc1 (single isomer, unassigned) [Example 96C]"
assay_endpoint = "Kd"
numeric_result = 0.0022

[[record]]
compound = "COc1ccc(C(O)(c2ccc3nc(Cl)c(Cc4ccccc4)c(Cl)c3c2)c2cncs2)cn1 (stereo not shown)"
assay_endpoint = "Kd"
numeric_result = 0.0045

[[record]]
compound = "Cn1cncc1C(O)(c1ccc(Cl)cc1)c1ccc2nc(Cl)c(Cc3ccccc3)c(Cl)c2c1 (stereo not shown)"
assay_endpoint = "Kd"
numeric_result = 0.018


* * *

Tested on: IL-17 production by CD4 T cells
Assay: Human Th17 assay (IL-17 production by CD4 T cells under Th17 differentiation)
Type: cell-based
Settings: Homo sapiens, CD4+ T, 72 h, read-out: Human Th17 Assay, IC50 μM
Each entry below carries its reported log10 of IC50.
assay-endpoint: log10 of IC50 (log10 of the value in µM)

[[record]]
compound = "COc1nc2ccc(C(O)(c3ccc(C(F)(F)F)nc3)c3cncn3C)cc2c(Cl)c1Cc1ccc(-n2cccn2)cc1 (stereo not shown) [Example 35A]"
numeric_result = -0.52

[[record]]
compound = "COc1nc2ccc(C(O)(c3ccc(C(F)(F)F)nc3)c3cncn3C)cc2c(Cl)c1Cc1ccc(-n2cccn2)cc1 (single isomer, unassigned) [Example 35B]"
numeric_result = -1.13

[[record]]
compound = "COc1nc2ccc(C(O)(c3ccc(C(F)(F)F)nc3)c3cncn3C)cc2c(Cl)c1Cc1ccc(C(F)(F)F)cc1 (single isomer, unassigned) [Example 62B]"
numeric_result = -1.00

[[record]]
compound = "COc1nc2ccc(C(O)(c3ccc(Cl)cc3)c3cncn3C)cc2c(Cl)c1Cc1ccc(C#N)cc1 (single isomer, unassigned) [Example 63C]"
numeric_result = -1.42

[[record]]
compound = "COc1nc2ccc(C(O)(c3ccc(Cl)cc3)c3cncn3C)cc2c(Cl)c1Cc1ccc(-n2cccn2)cc1 (single isomer, unassigned) [Example 33C]"
numeric_result = -1.17

[[record]]
compound = "COc1nc2ccc(C(O)(c3ccc(Cl)cc3)c3cncn3C)cc2c(Cl)c1Cc1ccc(-n2cccn2)cc1 (stereo not shown) [Example 33A]"
numeric_result = -0.85

[[record]]
compound = "COc1nc2ccc(C(O)(c3cnnn3C)c3cnnn3C)cc2c(Cl)c1Cc1ccc(-n2cccn2)cc1 [Example 61]"
numeric_result = -2.38

